- experimental_target: T1, PDZRN3_1, Q9UPQ7
- T1 sequence (Q9UPQ7 244-349, limits assumed, looked up): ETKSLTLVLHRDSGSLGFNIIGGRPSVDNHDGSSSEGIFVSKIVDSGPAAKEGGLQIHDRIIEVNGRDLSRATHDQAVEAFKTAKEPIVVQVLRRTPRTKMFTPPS
- experimental_protocol: holdup assay
- Set-up: key: below the threshold = too weak to quantify, mostly under pKd 3.1 to 4
- experimental_conditions: plain residues with an end cap or a label only (N-terminal biotin on a linker: ado-ado)
result_type: pKd

Known results for binders:
[[record]]
binder = "TNSKQGETTV [FZD1, Q9UP38]"
result_type = "pKd"
test_result = 3.85

[[record]]
binder = "KEKASTETEC [TRPM1, Q7Z4N2]"
result_type = "pKd"
test_result = "below the threshold"

[[record]]
binder = "SAGADSETHC [SLCO1B1, Q9Y6L6]"
result_type = "pKd"
test_result = "below the threshold"

[[record]]
binder = "PKSNSSKEYV [CLDN7, O95471]"
result_type = "pKd"
test_result = "below the threshold"

[[record]]
binder = "VYEVPVETKF [SLC26A3, P40879]"
result_type = "pKd"
test_result = "below the threshold"


Reported pKd for WAKEKQHTRL [SLC17A1, Q14916] : what is it?
3.79

Give the measured pKd of QQGLLPHSSC [TYRO3, Q06418] .
below the threshold

Looking for the measured pKd of FLVTEFNVML [DFNB31, Q9P202] , can you help?
below the threshold

# input binder: PSDSVGKDVF [EGLN1, Q9GZT9] ; wanted: its pKd
below the threshold

I am curious: what pKd value has been reported for KPDKQEEFYA [SDC3, O75056] ?
below the threshold
